B1: Pistol ribozyme (parent)
chain: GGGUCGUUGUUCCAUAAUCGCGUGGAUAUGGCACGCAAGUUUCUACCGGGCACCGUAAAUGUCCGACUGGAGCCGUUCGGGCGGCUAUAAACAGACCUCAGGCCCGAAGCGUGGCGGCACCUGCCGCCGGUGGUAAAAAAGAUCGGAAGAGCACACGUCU

# Variants of: B1
# TEST DETAILS: aptazyme ON/OFF ratio, guanine; higher = stronger switching; co-transcriptional cleavage with and without guanine
Reported aptazyme ON/OFF ratio values for a set of variants
Simply state the number, no unit and no words.

Reference set, count: 4
VARIANT DESCRIPTION: U7A G9A U10G U11G C12G C13G
aptazyme ON/OFF ratio: 1.09

VARIANT DESCRIPTION: U7A G9C U11G C12U C13A
aptazyme ON/OFF ratio: 1.42

VARIANT DESCRIPTION: U8A U10A U11A C12A
aptazyme ON/OFF ratio: 1.14

VARIANT DESCRIPTION: U10A U11C C12A
aptazyme ON/OFF ratio: 1.16

Reported aptazyme ON/OFF ratio for U7G U8C C12G C13U : what is it?
1.19

Look up aptazyme ON/OFF ratio: U10A U11C C13U
1.01

Which aptazyme ON/OFF ratio is reported for this variant? U8G G9C U11A C12G C13A
1.08

Which aptazyme ON/OFF ratio is listed for C12A ?
1.76
